Biological target: 4-hydroxyphenylpyruvate dioxygenase (Sus scrofa)
Readout Type: Ki (µM)
Could you give me the number in µM? Just the number is fine.

Which Ki is reported with 4-hydroxyphenylpyruvate dioxygenase (Sus scrofa) for this entry: CCC/C(=N\OCC)C1=C(O)CC(CC(C)SCC)CC1=O (stereo unspecified) ? 300

====

Target: 4-hydroxyphenylpyruvate dioxygenase (Sus scrofa)
Assay: Inhibitory activity on pig liver 4-hydroxyphenylpyruvate dioxygenase (HPPD) was evaluated
Readout Type: IC50 (nM)
Numbers only; they are read as nM.

Which measured IC50 value corresponds to `CS(=O)(=O)c1ccc(C(O)=C2C(=O)CCCC2=O)c(Cl)c1` ? 45

====

Target: 4-hydroxyphenylpyruvate dioxygenase (Sus scrofa, UniProt Q02110)
Sequence (Q02110 whole entry): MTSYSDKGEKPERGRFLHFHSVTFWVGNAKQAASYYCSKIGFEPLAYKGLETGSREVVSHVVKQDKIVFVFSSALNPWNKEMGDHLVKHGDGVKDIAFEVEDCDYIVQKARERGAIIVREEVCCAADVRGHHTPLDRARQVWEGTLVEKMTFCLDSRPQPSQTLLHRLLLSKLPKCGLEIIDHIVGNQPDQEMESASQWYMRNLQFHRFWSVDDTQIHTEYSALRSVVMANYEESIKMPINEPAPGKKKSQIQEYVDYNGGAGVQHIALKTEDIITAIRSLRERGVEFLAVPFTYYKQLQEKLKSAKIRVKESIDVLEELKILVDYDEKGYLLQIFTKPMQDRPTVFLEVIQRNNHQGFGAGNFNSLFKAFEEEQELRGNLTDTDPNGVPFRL
Test: The inhibitory activity on pig liver 4-hydroxyphenylpyruvate dioxygenase (HPPD) was evaluated.
Readout Type: pIC50
Just so you know, pIC50 here is -log10 of the concentration in molar units; reply with that number alone.

Identify the measured pIC50 of `O=C1CCCC(=O)C1=C(O)c1ccc(C(F)(F)F)cc1[N+](=O)[O-]` for 4-hydroxyphenylpyruvate dioxygenase (Sus scrofa, UniProt Q02110). 7.40
